MEASUREMENT TARGET: human RXFP1 (Homo sapiens, UniProt Q9HBX9)
Sequence (Q9HBX9 whole entry): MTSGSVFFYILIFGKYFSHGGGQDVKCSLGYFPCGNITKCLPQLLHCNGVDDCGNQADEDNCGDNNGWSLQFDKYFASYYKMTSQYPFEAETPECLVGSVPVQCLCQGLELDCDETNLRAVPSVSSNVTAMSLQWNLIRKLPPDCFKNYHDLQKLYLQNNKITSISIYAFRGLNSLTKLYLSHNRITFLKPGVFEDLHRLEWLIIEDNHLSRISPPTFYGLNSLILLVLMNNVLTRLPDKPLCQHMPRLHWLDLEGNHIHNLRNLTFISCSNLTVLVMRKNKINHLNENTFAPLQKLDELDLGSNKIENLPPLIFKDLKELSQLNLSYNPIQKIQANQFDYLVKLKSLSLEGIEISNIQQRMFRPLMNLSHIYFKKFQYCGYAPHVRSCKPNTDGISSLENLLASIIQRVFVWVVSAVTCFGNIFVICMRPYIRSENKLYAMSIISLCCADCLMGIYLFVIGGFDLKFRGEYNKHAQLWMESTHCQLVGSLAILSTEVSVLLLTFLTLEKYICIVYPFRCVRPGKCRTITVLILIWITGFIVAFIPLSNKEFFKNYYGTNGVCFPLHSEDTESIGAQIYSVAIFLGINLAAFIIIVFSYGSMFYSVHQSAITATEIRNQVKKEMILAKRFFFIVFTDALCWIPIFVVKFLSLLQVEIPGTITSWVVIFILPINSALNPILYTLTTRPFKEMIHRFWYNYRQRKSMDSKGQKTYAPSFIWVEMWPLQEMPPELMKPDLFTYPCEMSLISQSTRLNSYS
ASSAY COMMENT: RXFP1 Hu cAMP (Test A)
Format: cell-based
Set-up: expressed in transfected cells; host or cells: Jump-In T-REx CHO-K1 cells (ThermoFisher), induced with 10 ng/ml doxycycline for 24 h
REPORTED CONDITIONS: RXFP1 Hu cAMP
EXPERIMENTAL READOUT: Test A Sinf (%)
Number in %, nothing else.

Need Test A Sinf of COc1cc(F)c(O[C@H]2CC[C@@](C)(C(=O)O)CC2)cc1C(=O)Nc1cc(C)c(C)cc1C(=O)NCC1(C)CCC1 [Example 212] , thanks.
134

Also need COc1cc(F)c(O[C@H]2CC[C@@H](C(=O)O)CC2)cc1C(=O)N[C@@H]1[C@H]2CC[C@H](C2)[C@@H]1C(=O)Nc1cc(C(F)(F)F)cc(C(F)(F)F)c1 [Example 22] , thanks.
130

Also need COc1cc(F)c(OC2CCC(C)(C(=O)O)CC2)cc1C(=O)NC1CC(OC)CC1C(=O)Nc1cccc(S(=O)(=O)C(F)(F)F)c1 (single isomer, unassigned) [Example 524] , thanks.
110

Also need COc1cc(F)c(-c2ccc(C(=O)O)cc2)cc1C(=O)N[C@@H]1[C@H]2CC[C@H](C2)[C@@H]1C(=O)Nc1cccc(S(F)(F)(F)(F)F)c1 [Example 209] , thanks.
101

Also need COc1cc(F)c(O[C@H]2CC[C@@H](C(=O)O)CC2)cc1C(=O)N[C@@H]1[C@H]2CC[C@H](C2)[C@@H]1C(=O)Nc1ccc(F)c(C(F)(F)F)c1 [Example 179] , thanks.
106
